experiment: NCI Yeast Anticancer Drug Screen. Data for the mlh1 rad18 strain (AID 175); conditions: S. cerevisiae mlh1 rad18 strain growth inhibition; at 50.0 µM; hits give high values
Compounds without any hit were thinned out: in the full panel of roughly 79,000, 15% have a hit.
assay endpoint: growth inhibition (%)
Report only the number, with the unit % understood.

Known growth inhibition results, listed for orientation:
# compound, growth inhibition / %
measured = [
    ("CC(C)c1ccccc1OC(=O)c1cccc(Br)c1", 1.5),
    ("COCC/C=C\\CN(C(C)C)C(C)C", 1.05),
    ("CC(C)NC(=O)OCc1c(COC(=O)NC(C)C)c(Sc2ccccc2)n2c1CCC2", 16.2),
    ("CN(C)CC(CN(C)C)C(=O)c1ccc(OC2OC(CO)C(O)C(O)C2O)cc1 (stereo not given)", 2.05),
    ("COC1CC(NC(C)=O)C(OC(C)=O)C(C)O1 (stereo not given)", -1.4),
    ("CCN(CC)c1nc2ccccc2o1", -9.2),
    ("CCCCOC(=O)c1ccc(NC(=O)CCC(C)Cl)cc1 (stereo not given)", 6.6),
    ("CC(Cc1ccco1)C(=O)O (stereo not given)", -11.2),
]

// growth inhibition lookup, key: Cc1ccc(C(C)C)c(OCC2=NCCN2C)c1
-10.2

# input compound: COc1c(NC(=O)C(Br)C(Br)C(=O)O)cccc1[N+](=O)[O-] (stereo not given) ; wanted: its growth inhibition
-2.25

Consider the compound shown here: COc1ccc(COC(=O)NC2CCCCC2)cc1OC What is its recorded growth inhibition?
45.9

Quick one: growth inhibition for COc1ccc(N)cc1CO ?
12.7

Can you look up the measured growth inhibition of C(=N\c1oc(-c2ccccc2)c(-c2ccccc2)c1-c1ccccc1)/c1ccccc1 for me?
6.2

Param item = CCNc1ccc(N=Nc2ccc(-c3ccc(N=Nc4ccc(NCC)c5ccccc45)c(OC)c3)cc2OC)c2ccccc12 ; retrieve measured growth inhibition.
36

// query growth inhibition value for entry O=C(O)c1ccc2c(c1)S(=O)(=O)NC2=O
-8

Need growth inhibition of Cc1cc(=O)c2cc(-c3ccccc3)ccc2[nH]1 , thanks.
2

Requested read-out: growth inhibition. Entry: CC(Cl)(CCC(Cl)C(C)(C)Cl)C(=O)CBr (stereo not given)
93.2

Fill blank: measured growth inhibition of the compound O=S(=O)(O)Cc1ccccc1 is ____.
2.35

Sample N#CC1=C(Nc2ccccc2)SC(c2cccs2)NC1=O (stereo not given) — what was its growth inhibition?
23.2

* * *

test: NCI Yeast Anticancer Drug Screen. Data for the sgs1 mgt1 strain (AID 161);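 further: 0% = growth of cultures given vehicle only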; settings: S. cerevisiae sgs1 mgt1 strain, at 50.0 µM, hits give high values
Compounds without any hit were thinned out: in the full panel of roughly 79,000, 15% have a hit.
assay endpoint: growth inhibition (%)
Write the number in % without appending the unit.

Example entries and their recorded answers appear below.
# compound, measurement units, assay result
measured = [
    ("CC(C)C(=O)Nc1ccccc1-c1ccccc1", "%", -9.35),
    ("CC(C)(C)OC(=O)[N+](=N)C(=O)C1CCC(=O)N1C(=O)OCc1ccccc1 (stereo unspecified)", "%", -23.4),
    ("CCOC(=O)C(=O)Nc1nc2ccc(OC)cc2s1", "%", -10.8),
]

What value of growth inhibition has been reported for the following compound? CC#CC(O)(C(=O)OC1CCC2CCC1N2C)C1CCCC1 (stereo unspecified)
-23.3

Any idea what its growth inhibition is? The compound is CC(C)Cc1ncnc2n[nH]nc12
35.5
